# Test system: OVCAR-4 ovarian
# METHOD_NOTES: NCI-60 one-dose screen, 48 h (100 = growth as untreated, 0 = no growth, -100 = all killed)
# RECORDED_CONDITIONS: 10 µM unless noted
This is part of a sample that, as a whole, favours compounds with a hit. Of some 83,000 tested, about 20% had one in any assay.
Classes by growth: low interval (below 50%), middle interval (50% to below 90%), high interval (90% or more)

Class for NC(N)=N/N=C/c1ccc(Br)cc1 ?
middle interval

Class for O=C(Nc1ccccc1Cl)OCCN1CCOCC1 ?
high interval

Class for Cc1ccc(-n2nnc(C3=NCCc4c3[nH]c3ccc(Cl)cc43)c2C)cc1 ?
middle interval

Class for COc1ccc(-c2cc(-c3cc(OC)ccc3OC)[nH]c(=O)c2C#N)cc1 ?
middle interval

Class for C[C@@H]1CC[C@@H]2[C@@H]1[C@H](OC(=O)c1ccc3ccccc3c1)[C@]1(C3CCCCC3)C[C@@H](OC(=O)CO)[C@@]2(C)O1 ?
middle interval

Class for NC(N)=N/N=C(/c1ccccc1)c1ccccc1F ?
low interval

Class for CNC(=O)c1cc(Oc2ccc3nc(NC(=O)Nc4cc(C(F)(F)F)cc(C(F)(F)F)c4)sc3c2)ccn1 ?
low interval

Class for Cl.Fc1c[c-]c(-c2ccccn2)c(F)c1.[Pt].c1ccc([PH+](c2ccccc2)c2ccccc2[PH+](c2ccccc2)c2ccccc2)cc1 ?
low interval

Class for Clc1ccc(-c2nnc(-c3ccco3)o2)cc1 ?
high interval

Class for N=c1ccn2c(n1)OC1C(O)C(CO)OC12 (stereo not given) ?
middle interval

Class for CCNCCNc1cc(-c2cccc(C(F)(F)F)c2)c(C#N)c2nc3ccccc3n12 ?
low interval

Class for COC(=O)Nc1nc2ccc(C(=O)C3CC3)cc2[nH]1 ?
low interval

Class for COc1cc2oc(-c3cccc(C(=O)Nc4ccc(C#N)cc4)c3)cc(=O)c2c(O)c1OC ?
low interval

Class for Cc1nc(Nc2ccc(S(=O)(=O)Nc3cc(C)on3)cc2)c2ccccc2n1 ?
high interval

Class for O=C(CC12CC3CC(CC(C3)C1)C2)NCCOCCOCCOCCNC(=O)c1cc2c(o1)C(=O)c1ccccc1C2=O ?
low interval

Class for O=C(O)c1ccc(CO)o1 ?
high interval

Class for CCCCCOC(=O)c1cccc(NC(=O)CN(CC)CC)c1 ?
high interval

Class for CCOC(=O)c1sc(-c2ccc(OS(=O)(=O)c3ccc(C(C)(C)C)cc3)c(C=O)c2)nc1C ?
low interval

Class for CCOC(=O)c1c2c(c(C)n1C)-c1nn(Cc3ccc(OC)cc3)cc1CC2 ?
middle interval

Class for CC1=CC(=O)C(C(C)C)=CC1=Nc1cc(Br)c(O)c(Br)c1 ?
low interval

Class for O=C1N(c2ccccc2)C(=S)N[C@]12[C@H](c1ccccc1)C1CCCN1[C@]21C(=O)NC2C=CC(Cl)=C[C@H]21 (stereo not given in full) ?
high interval

Class for CCn1nc(C#Cc2c(C)ccc3c(Nc4ccc(Cl)cc4)nccc23)c2c(N)ncnc21 ?
low interval

Class for COc1ccc(/C(C)=C(\c2ccc(Cl)cc2)c2ccc(OCCN3CCCCCC3)cc2)cc1F ?
low interval

Class for O=C(Oc1ccc([N+](=O)[O-])cc1)c1ccc(CBr)cc1 ?
high interval

Class for O=S(=O)(NCCNc1cc(-c2c(-c3cccc(O)c3)nc3sccn23)ccn1)c1ccc(Br)cc1 ?
low interval

Class for c1ccc(-c2oc3ccccc3c2-c2ccccc2)cc1 ?
high interval

Class for C=C(C)[C@@H]1CC[C@]2(C(=O)NCC(=O)O)CC[C@]3(C)[C@H](CC[C@@H]4[C@@]5(C)Cc6c([nH]c7ccccc67)C(C)(C)[C@@H]5CC[C@]43C)[C@@H]12 ?
middle interval

Class for O=C(NCc1cn(Cc2cccc(Oc3ccccc3)c2)nn1)c1cccnc1NCc1ccc(Cl)cc1 ?
low interval

Class for COc1ccc(C(=O)/C=C/c2cc3c(c(OC)c2)OCC(=O)N3)cc1 ?
middle interval

Class for Cc1c(C(=O)O)nnn1-c1nccs1 ?
high interval

Class for CCCCCCN(CCCCCC)CC(O)c1cccc2ccc(Cl)cc12 (stereo not given) ?
middle interval

Class for O=C(C[C@@]1(O)C(=O)Nc2c(Cl)ccc(Cl)c21)c1ccc(C2CC2)cc1 ?
middle interval

Class for CC(=O)Nc1cccc(C2=CC(c3ccc(C)cc3)n3ncnc3N2)c1 (stereo not given) ?
high interval

Class for COc1ccc(N=c2nc3sc4cc(Cl)ccc4n3c(N)c2C#N)cc1 ?
middle interval

----------
# Tested on: SK-MEL-2 melanoma
# METHOD_NOTES: NCI-60 one-dose screen, 48 h (100 = growth as untreated, 0 = no growth, -100 = all killed)
# RECORDED_CONDITIONS: 10 µM unless noted
This is part of a sample that, as a whole, favours compounds with a hit. Of some 83,000 tested, about 20% had one in any assay.
# if value of growth reaches 30%, tag criterion met; if it stays below, tag criterion not met

Say whether CO[C@H]1/C=C/O[C@@]2(C)Oc3c(C)c(O)c4c(c3C2=O)C(=O)C(/C=N/N(c2ccccc2)c2ccccc2)=C(NC(=O)/C(C)=C\C=C\[C@H](C)[C@H](O)[C@@H](C)[C@@H](O)[C@@H](C)[C@H](OC(C)=O)[C@@H]1C)C4=O shows growth of 30% or more.
criterion not met

Say whether Clc1ccc(/C=N\N=c2\scc(-c3ccc(Cl)cc3)n2/N=C/c2ccc(Cl)cc2)cc1 shows growth of 30% or more.
criterion met

Say whether CC(=O)Nc1ccc2c(c1)Cc1c(F)cccc1-2 shows growth of 30% or more.
criterion met

Say whether CCN(CC)CCCC(C)NCc1ccccc1 (configuration not stated) shows growth of 30% or more.
criterion met

Say whether COC1(CC[C@@H](C)COC2OC(CO)C(O)C(O)C2O)O[C@H]2C[C@H]3[C@@H]4CC=C5C[C@@H](OC6OC(CO)C(OC7OC(C)C(O)C(O)C7O)C(O)C6OC6OC(C)C(O)C(O)C6O)CC[C@]5(C)[C@H]4CC[C@]3(C)[C@H]2[C@@H]1C (some centres not stated) shows growth of 30% or more.
criterion not met

Say whether COc1ccc(-c2nnc(-c3ccc4c(c3)nc(-c3ccccc3)n4C3CCCCC3)o2)cc1 shows growth of 30% or more.
criterion met

----------
# Tested on: HT29 colon
# METHOD_NOTES: NCI-60 one-dose screen, 48 h (100 = growth as untreated, 0 = no growth, -100 = all killed)
# RECORDED_CONDITIONS: 10 µM unless noted
Compounds without any hit were thinned out: in the full panel of roughly 83,000, 20% have a hit.
# if value of growth reaches 90%, tag condition met; if it stays below, tag condition not met

Say whether COC1(CC[C@@H](C)COC2OC(CO)C(O)C(O)C2O)O[C@H]2C[C@H]3[C@@H]4CC=C5C[C@@H](OC6OC(CO)C(OC7OC(C)C(O)C(O)C7O)C(O)C6OC6OC(C)C(O)C(O)C6O)CC[C@]5(C)[C@H]4CC[C@]3(C)[C@H]2[C@@H]1C (stereo partly drawn) shows growth of 90% or more.
condition not met

Say whether N=C(N)c1ccc(-c2ccc(/C=C/c3ccccc3)s2)cc1 shows growth of 90% or more.
condition not met

Say whether Cc1nc(C)c(-c2nn3c(-c4cccc(F)c4)nnc3s2)s1 shows growth of 90% or more.
condition not met

Say whether N#Cc1c(-c2ccccc2)nc(SCC2CO2)nc1N1CCOCC1 (stereo not drawn) shows growth of 90% or more.
condition not met

Say whether Clc1ccc(-c2nnc(Cn3ccnc3)o2)cc1 shows growth of 90% or more.
condition met

Say whether [2H]c1nc(Nc2ncc(F)c(-c3cc(F)c4nc(C)n(C(C)C)c4c3)n2)c([2H])c([2H])c1CN1CCN(C([2H])([2H])C([2H])([2H])[2H])CC1 shows growth of 90% or more.
condition not met

Say whether Cc1cc(=O)c2cc3nc(-c4cccnc4)oc3c(Br)c2o1 shows growth of 90% or more.
condition met

----------
Please respond with reported growth for every item in the list.
# System: SK-MEL-2 melanoma
# METHOD_NOTES: NCI-60 one-dose screen, 48 h (100 = growth as untreated, 0 = no growth, -100 = all killed)
# RECORDED_CONDITIONS: 10 µM unless noted
About 83,000 compounds went through this panel and 20% of them were active in at least one assay; those are over-represented in the sample as a whole.
Field: numeric (%). Do not append units.

Give me measured growth, please, for this compound: N=C(N)c1ccc(-c2ccc(/C=C/c3ccccc3)s2)cc1
102

Give me measured growth, please, for this compound: CCOC(=O)C1=C(C)NC(SCc2nnc(-c3ccc(Cl)cc3)o2)=NC1c1ccc(Cl)cc1Cl (centres undefined)
60.3

Give me measured growth, please, for this compound: N#Cc1c(N)n2c(nc1=Nc1ccc(Cl)cc1)sc1cc(Cl)ccc12
69.8

Give me measured growth, please, for this compound: COc1cc(-c2cc(-c3ccc(Nc4nc(Nc5ccccc5)nc(Nc5ccc(Cl)cc5)n4)cc3)nc(N)n2)cc(OC)c1OC
59.5

Give me measured growth, please, for this compound: CCN(CC)CCCNC(=O)c1ccc(N)cc1
99

Give me measured growth, please, for this compound: O=C(c1ccccc1)c1ccc(Cl)c([N+](=O)[O-])c1
95.3

Give me measured growth, please, for this compound: CCCCCOC(=O)c1cccc(NC(=O)CN(CC)CC)c1
70.7

Give me measured growth, please, for this compound: O=C1NN(C(=O)c2ccc(O)cc2)C(c2ccccc2)=N/C1=C\c1cn(-c2ccccc2)nc1-c1ccccc1
100

Give me measured growth, please, for this compound: C=C1c2c(C)nn(-c3ccc(NC(C)=O)cc3)c2N(C)C23CC1C1(C)c4c(C)nn(-c5ccc(NC(C)=O)cc5)c4N(C)C(C)(CC12)C3 (centres undefined)
36.6

Give me measured growth, please, for this compound: CCOC(=O)c1ccc(-c2ccc3cc(OC)ccc3c2)nc1C
102

Give me measured growth, please, for this compound: O=[N+]([O-])c1ccc(-c2cc3c(Nc4ccc(OCc5cccc(Cl)c5)c(Cl)c4)ncnc3s2)cc1
79.4

Give me measured growth, please, for this compound: O=C(CCc1nc(-c2cccc(Cl)c2)no1)Nc1ccccn1
105

Give me measured growth, please, for this compound: Cc1nc(Nc2ccc(NC(=S)Nc3ccccc3)cc2)nc2nc(SCc3ccccc3)[nH]c(=O)c12
110

Give me measured growth, please, for this compound: COc1ccc(-c2nc3sccn3c2/C=C/C(=O)c2c[nH]c3ccccc23)cc1
90.9

Give me measured growth, please, for this compound: O=c1oc2ccc(Cl)cc2cc1-c1cs/c(=N/N=C\c2ccc(Cl)cc2)n1/N=C/c1ccc(Cl)cc1
92.6

Give me measured growth, please, for this compound: COc1cc(/C=C/C(=O)c2cccc(-n3cc(-c4ccc(Cl)cc4)[nH]c3=O)c2)cc(OC)c1OC
34.1

Give me measured growth, please, for this compound: O=C1Nc2ccccc2/C1=N/N=C/c1ccsc1
107

Give me measured growth, please, for this compound: C[C@H]1[C@H]2C3=CC[C@@H]4[C@@]5(C)C/C(=C/c6ccncc6)C(=O)C(C)(C)[C@@H]5CC[C@@]4(C)[C@]3(C)CC[C@@]2(C(=O)N2CCN(C)CC2)CC[C@@H]1C
96.3

Give me measured growth, please, for this compound: Cc1ccc(-n2nnc(C3=NCCc4c3[nH]c3ccc(Cl)cc43)c2C)cc1
62.6
